- assay_protocol: XTT cytotoxicity assay in HeLa cells
- measurement_context: human
Starred links: 1 amine or outer side, 2 acyl side, 3 side chain; linkers in the order of their positions; H or OH if unused. Positions of bridges follow the written chain, without caps; N, C: chain ends. Non-standard residues stand in square brackets, D forms with d. Residues, ends and D or L forms follow the SMILES beside them. Chains are numbered I, II in the order given. Actinocin(9to1) = Cc1c2oc3c(C)ccc(C(=O)[*:1])c3nc-2c(C(=O)[*:2])c(N)c1=O; NMeV = CN[C@H](C(=O)O)C(C)C; Sar = CNCC(=O)O
parameter_measured: IC50 at 72 h (µM)
# value in µM; strip the unit string

Please give the measured IC50 at 72 h for this molecule: Cc1c2oc3c(C)ccc(C(=O)N[C@@H]4C(=O)N[C@H](C(C)C)C(=O)N5CCC[C@H]5C(=O)N(C)CC(=O)N(C)[C@@H](C(C)C)C(=O)O[C@@H]4C)c3nc-2c(C(=O)N[C@@H]2C(=O)N[C@H](C(C)C)C(=O)N3CCC[C@H]3C(=O)N(C)CC(=O)N(C)[C@@H](C(C)C)C(=O)O[C@@H]2C)c(N)c1=O [Actinomycin D, reference compound] (I: T[dV]P[Sar][NMeV] / II: T[dV]P[Sar][NMeV]; ester I:1-I:C, II:1-II:C; linker I:N-II:N via Actinocin(9to1))
5.1
